Data provenance: ChEMBL document CHEMBL4049439

Readings of pIC50 for the listed compounds
- protocol.text: Inhibition of wild-type Acinetobacter baumannii DNA gyrase supercoiling activity using relaxed pBR322 DNA as substrate by ethidium bromide based agarose gel electrophoresis
pIC50: −log10 of the molar value.
reported.property: pIC50

COc1ccc2ccc(=O)n(C[C@H](O)[C@@H]3CC[C@@H](NCc4ccc5c(n4)NC(=O)CO5)CO3)c2n1 :: 6.90
O=C(O)c1cn(C2CC2)c2cc(N3CCNCC3)c(F)cc2c1=O :: 5.70
COc1ccc2ccc(=O)n(C[C@H](N)[C@@H]3CC[C@@H](NCc4ccc5c(n4)NC(=O)CO5)CO3)c2n1 :: 6.90
COc1ccc2ccc(=O)n(C[C@H](O)[C@@H]3CC[C@@H](NCc4cc5c(cn4)OCCO5)CO3)c2n1 :: 6.90
COc1ccc2ncc(F)c(C[C@H](N)[C@@H]3CC[C@@H](NCc4ccc5c(n4)NC(=O)CO5)CO3)c2n1 :: 6.90
COc1ccc2ncc(F)c(C[C@H](O)[C@@H]3CC[C@@H](NCc4cc5c(nn4)OCCS5)CO3)c2n1 :: 5.70
